List of TGI values.
tested on: A549 NSCLC; experiment: NCI tumour cell line growth inhibition, 48 h
Express your answer in µM, writing the number without its unit.

Solved cases below.
>  <compound>
C/C(=N\NC(=S)N1CCC1)c1ccccn1

>  <measurement-target>
A549 NSCLC

>  <TGI, µM>
37.5

$$$$
>  <compound>
O=C(CI)NC(=O)NC(=O)NCc1ccccc1

>  <measurement-target>
A549 NSCLC

>  <TGI, µM>
42.8

$$$$
>  <compound>
CC[C@]1(c2ccc3c(c2)OCO3)C=[N+]([O-])O[C@H](OC2CCCC2(c2ccccc2)c2ccccc2)[C@@H]1OC(C)=O (stereo not given in full)

>  <measurement-target>
A549 NSCLC

>  <TGI, µM>
11.4

$$$$

## Task Which measured TGI value corresponds to CC(C)C(NCc1c2ccccc2[n+](C)c2ccccc12)C(=O)O (stereo not given) ?
## Result 29.9

* * *

system: SK-MEL-2 melanoma; test: NCI tumour cell line growth inhibition, 48 h
assay-endpoint: TGI (µM)
Express your answer in µM, writing the number without its unit.

Solved cases below.
>  <record-smiles>
COC1=C(OC)C(=O)C(Cc2c(Cl)nc3sccn23)=C(C)C1=O

>  <measurement-target>
SK-MEL-2 melanoma

>  <unit-annotation>
µM

>  <TGI>
38.7

$$$$
>  <record-smiles>
CN(C)CCCOc1ccc(NC2=C(Cl)C(=O)C(Nc3ccc(OCCCN(C)C)cc3)=C(Cl)C2=O)cc1

>  <measurement-target>
SK-MEL-2 melanoma

>  <unit-annotation>
µM

>  <TGI>
3.31

$$$$
>  <record-smiles>
CO[C@H]1C(=O)[C@]2(C)[C@@H](OC)C[C@H]3OC[C@@]3(OC(C)=O)[C@H]2[C@H](OC(=O)c2ccccc2)[C@]2(O)C[C@H](OC(=O)[C@H](O)[C@@H](NC(=O)OC(C)(C)C)c3ccccc3)C(C)=C1C2(C)C

>  <measurement-target>
SK-MEL-2 melanoma

>  <unit-annotation>
µM

>  <TGI>
0.973

$$$$

Now for a further molecule.
## Task Which measured TGI value corresponds to "O=C(CCCCN1CCN(CCCCC(=O)Nc2ccccc2C#C/C=C\C#Cc2ccccc2C(F)(F)F)CC1)Nc1ccccc1C#C/C=C\C#Cc1ccccc1C(F)(F)F" ?
## Result 29.9

* * *

test system: HCT-116 colon; experiment: NCI tumour cell line growth inhibition, 48 h
assay-endpoint: TGI

Solved cases below.
>  <compound>
O=C1Nc2ccc(-c3cccnc3)cc2/C1=C/c1cc(Br)c(O)c(Br)c1

>  <assay-endpoint>
TGI

>  <observed>
> 25 µM

$$$$
>  <compound>
Cn1c(CO)ccc1-c1ccc(-c2ccc(CO)[se]2)[se]1

>  <assay-endpoint>
TGI

>  <observed>
60 µM

$$$$
>  <compound>
O=C1Nc2noc(=O)nc2NO1

>  <assay-endpoint>
TGI

>  <observed>
> 200 µM

$$$$
>  <compound>
Nc1nc(-c2ccccc2)c(CC(=O)O)s1

>  <assay-endpoint>
TGI

>  <observed>
> 100 µM

$$$$
>  <compound>
[N-]=[N+]=CC(=O)C1CCN(c2ccccc2)C1=O (centres undefined)

>  <assay-endpoint>
TGI

>  <observed>
> 10 µM

$$$$

## Task Which measured TGI value corresponds to C=CCOC(C)(C)C1=CCC(C)CC1 (centres undefined) ?
## Result > 100 µM

## Task Which measured TGI value corresponds to "CN(C)c1cccc2c(S(=O)(=O)NCCN)cccc12" ?
## Result > 100 µM

## Task Which measured TGI value corresponds to O=C1C2C(C(=O)N1Cc1ccccc1)N(Cc1ccccc1)C(=O)N2Cc1ccccc1 (centres undefined) ?
## Result > 100 µM

## Task Which measured TGI value corresponds to "CC(=O)O[C@H]1CC[C@@H](OC(C)=O)[C@H]2[C@H](O)[C@H](O)[C@@H]1n1c(=O)n(-c3ccccc3)c(=O)n12" ?
## Result > 100 µM

All figures here come from PubChem BioAssay (NCI).
